System: TOV21G (ovarian cancer)
Test: Cell proliferation inhibition in vitro, CellTiter-Glo, TOV21G
Format: cell-based
Conditions: Homo sapiens; TOV21G cells, 120 hours, CellTiter-Glo; read-out: TOV21G/IC50/μM
result.type: IC50 (µM)
Report as a plain number; the unit µM is understood.

Can you share its IC50? I mean this compound: "Cc1nn(-c2cncc(C(N)=O)c2)c(C)c1-c1cc(N2CCOC[C@H]2C)nc(-c2cccc3[nH]ccc23)n1"
0.22

What IC50 value was documented for this compound, "Cc1nn(-c2cncc(F)c2)c(C)c1-c1cc(N2CCOC[C@H]2C)nc(-n2c(N)nc3ccccc32)n1" ?
0.257

Entry "CNc1nc2ccccc2n1-c1nc(-c2c(C)nn(-c3ccc(=O)[nH]c3)c2C)cc(N2CCOC[C@H]2C)n1" has what IC50?
0.226

What measured IC50 goes with "CNc1nc2ccccc2n1-c1nc(-c2c(C)nn(-c3cncc(Cl)c3)c2C)cc(N2CCOC[C@H]2C)n1" ?
0.411

Could you tell me which IC50 is on file for "Cc1nn(-c2cncc(C(F)F)c2)c(C)c1-c1cc(N2CCOC[C@H]2C)nc(-c2ccnc3[nH]ccc23)n1" ?
0.537

Next:
Suppose we examine the compound "CC#Cc1cncc(-n2nc(C)c(-c3cc(N4CCOC[C@H]4C)nc(-n4c(NC)nc5ccccc54)n3)c2C)c1" ; what IC50 value has been reported?
0.212

Request the reported IC50 associated with "Cc1nn(-c2cncc(F)c2)c(C)c1-c1cc(N2CCOC[C@H]2C)nc(-c2cccc3[nH]ccc23)n1"
0.196

Return reported IC50; argument: "Cc1nn(-c2cnccc2Cl)c(C)c1-c1cc(N2CCOC[C@H]2C)nc(-c2cc(F)cc3[nH]ccc23)n1"
0.556

What IC50 value was documented for this compound, "Cc1nn(-c2cncc(F)c2)c(C)c1-c1cc(N2CCOC[C@H]2C)nc(-c2cc(F)cc3[nH]ccc23)n1" ?
0.291

Return reported IC50; argument: "Cc1nn(-c2cncc(O)c2)c(C)c1-c1cc(N2CCOC[C@H]2C)nc(-c2cccc3[nH]ccc23)n1"
0.24

Look up IC50: "CNc1nc2ccccc2n1-c1nc(-c2c(C)nn(-c3ccc(OC)nc3)c2C)cc(N2CCOC[C@H]2C)n1"
0.544

* * *

Test system: TOV21G (ovarian cancer)
Test: Cell proliferation inhibition in vitro, CellTiter-Glo, TOV21G
Type: cell-based
Conditions: Homo sapiens; TOV21G cells, 120 hours, CellTiter-Glo; read-out: TOV21G/IC50/μM
Measured IC50, listed per entry for reference.
Return type: number; implicit unit µM.

Known IC50 results, listed for orientation:
Param readout= IC50; system= TOV21G (ovarian cancer); entry= Cc1nn(-c2cccnc2)c(C)c1-c1cc(N2CCOC[C@H]2C)nc(-c2cc(F)cc3[nH]ccc23)n1 [Compound A4] ; returns value.
0.313

Query IC50 on TOV21G (ovarian cancer) for Cc1nn(-c2ccnnc2)c(C)c1-c1cc(N2CCOC[C@H]2C)nc(-c2cc(F)cc3[nH]ccc23)n1 [Compound A15]
0.234

Value wanted: IC50 (TOV21G (ovarian cancer)) of entry Cc1nn(-c2ccc(F)nc2)c(C)c1-c1cc(N2CCOC[C@H]2C)nc(-c2cc(F)cc3[nH]ccc23)n1 [Compound A6]
0.423

Continuing:
Reported IC50 for TOV21G (ovarian cancer), given COc1ccc(-n2nc(C)c(-c3cc(N4CCOC[C@H]4C)nc(-c4cc(F)cc5[nH]ccc45)n3)c2C)cn1 [Compound A5] ?
0.647

Record Cc1nn(-c2cncc(F)c2)c(C)c1-c1cc(N2CCOC[C@H]2C)nc(-n2c(NCCO)nc3ccccc32)n1 [Compound B11] : what is its IC50 with TOV21G (ovarian cancer)?
0.276
